IC50 overview
- test-system: Dihydrofolate reductase (Rattus norvegicus)
- method: Compound was tested for inhibitory activity against Dihydrofolate Reductase of rat liver
- test-settings: read-out: I50

mol-smiles: CCOc1c(OC)cc(Cc2cnc(N)nc2N)cc1OC
test-system: Dihydrofolate reductase (Rattus norvegicus)
unit-of-measurement: µM
IC50: 620

mol-smiles: CCCOc1c(OC)cc(Cc2cnc(N)nc2N)cc1OC
test-system: Dihydrofolate reductase (Rattus norvegicus)
unit-of-measurement: µM
IC50: 250

###

- test-system: UniProt:P0ABQ4
- Sequence (P0ABQ4 whole entry): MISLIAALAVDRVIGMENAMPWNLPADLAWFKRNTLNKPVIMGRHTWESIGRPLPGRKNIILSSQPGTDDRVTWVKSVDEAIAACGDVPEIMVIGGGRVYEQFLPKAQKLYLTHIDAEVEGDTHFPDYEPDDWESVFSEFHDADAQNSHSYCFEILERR
assay-metric: IC50 (nM)

mol-smiles: CCOc1c(OC)cc(Cc2cnc(N)nc2N)cc1OC
test-system: UniProt:P0ABQ4
readout-number: 7.5

###

Measured inhibition values are reported for all entries that follow.
- test-system: Dihydrofolate reductase (Rattus norvegicus) (UniProt Q920D2)
- method: Compound was tested for inhibitory activity against Dihydrofolate reductase of rat liver at 40000 M

mol-smiles: CCOC(=O)COc1c(OC)cc(Cc2cnc(N)nc2N)cc1OC
inhibition / %: 12
--
mol-smiles: COc1cc(Cc2cnc(N)nc2N)cc(OC)c1OCCCN1CCN(C)CC1
inhibition / %: 36
--
mol-smiles: COc1cc(Cc2cnc(N)nc2N)cc(OC)c1OCCN
inhibition / %: 38
--
mol-smiles: COc1cc(Cc2cnc(N)nc2N)cc(OC)c1OCCCN1CCCCC1
inhibition / %: 20

###

- test-system: Dihydrofolate reductase (Rattus norvegicus, UniProt Q920D2)
- Sequence (Q920D2 whole entry): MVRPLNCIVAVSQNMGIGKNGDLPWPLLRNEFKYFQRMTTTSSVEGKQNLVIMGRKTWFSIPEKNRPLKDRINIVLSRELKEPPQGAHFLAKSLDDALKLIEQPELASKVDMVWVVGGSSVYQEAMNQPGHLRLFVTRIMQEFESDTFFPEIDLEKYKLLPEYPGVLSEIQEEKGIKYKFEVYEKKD
- method: Compound was tested for inhibitory activity against Dihydrofolate Reductase(DHFR) of rat liver
- test-settings: read-out: I50
assay-metric: IC50 (µM)

mol-smiles: C=CCOc1c(OC)cc(Cc2cnc(N)nc2N)cc1OC
readout-number: 480

###

Quick reference for IC50 among some compounds
- test-system: Dihydrofolate reductase (Rattus norvegicus)
- method: Inhibition of rat liver Dihydrofolate reductase.
- test-settings: read-out: I50

mol-smiles: CCCCCCOc1c(OC)cc(Cc2cnc(N)nc2N)cc1OC
test-system: Dihydrofolate reductase (Rattus norvegicus)
op: =
IC50 (µM): 200
--
mol-smiles: COc1cc(Cc2cnc(N)nc2N)cc(OC)c1OCCCCl
test-system: Dihydrofolate reductase (Rattus norvegicus)
op: =
IC50 (µM): 250
--
mol-smiles: CCc1c(OC)cc(Cc2cnc(N)nc2N)cc1OC
test-system: Dihydrofolate reductase (Rattus norvegicus)
op: =
IC50 (µM): 200
--
mol-smiles: CCCCCOc1c(OC)cc(Cc2cnc(N)nc2N)cc1OC
test-system: Dihydrofolate reductase (Rattus norvegicus)
op: =
IC50 (µM): 270
--
mol-smiles: COc1cc(COc2c(OC)cc(Cc3cnc(N)nc3N)cc2OC)cc(OC)c1OC
test-system: Dihydrofolate reductase (Rattus norvegicus)
op: =
IC50 (µM): 15
--
mol-smiles: COc1cc(Cc2cnc(N)nc2N)cc(OC)c1Oc1ccc([N+](=O)[O-])cc1
test-system: Dihydrofolate reductase (Rattus norvegicus)
op: =
IC50 (µM): 50
--
mol-smiles: CCCCOc1c(OC)cc(Cc2cnc(N)nc2N)cc1OC
test-system: Dihydrofolate reductase (Rattus norvegicus)
op: =
IC50 (µM): 580
--
mol-smiles: COc1cc(Cc2cnc(N)nc2N)cc(OC)c1OCCO
test-system: Dihydrofolate reductase (Rattus norvegicus)
op: >
IC50 (µM): 400
--
mol-smiles: COC(=O)CCCCCOc1c(OC)cc(Cc2cnc(N)nc2N)cc1OC
test-system: Dihydrofolate reductase (Rattus norvegicus)
op: =
IC50 (µM): 1100
--
mol-smiles: COc1cc(Cc2cnc(N)nc2N)cc(OC)c1OCCCN1C(=O)c2ccccc2C1=O
test-system: Dihydrofolate reductase (Rattus norvegicus)
op: =
IC50 (µM): 69
--
mol-smiles: COc1cc(Cc2cnc(N)nc2N)cc(OC)c1OCCCCN1C(=O)c2ccccc2C1=O
test-system: Dihydrofolate reductase (Rattus norvegicus)
op: =
IC50 (µM): 54
--
mol-smiles: COc1cc(Cc2cnc(N)nc2N)cc(OC)c1OCCCl
test-system: Dihydrofolate reductase (Rattus norvegicus)
op: =
IC50 (µM): 600
--
mol-smiles: COc1cc(Cc2cnc(N)nc2N)cc(OC)c1C
test-system: Dihydrofolate reductase (Rattus norvegicus)
op: =
IC50 (µM): 120
--
mol-smiles: COc1cc(Cc2cnc(N)nc2N)cc(OC)c1OCCCCCC(=O)O
test-system: Dihydrofolate reductase (Rattus norvegicus)
op: =
IC50 (µM): 296
--
mol-smiles: COc1cc(Cc2cnc(N)nc2N)cc(OC)c1OCCCCCCN
test-system: Dihydrofolate reductase (Rattus norvegicus)
op: =
IC50 (µM): 560
--
mol-smiles: COc1cc(Cc2cnc(N)nc2N)cc(OC)c1OCCN1CCOCC1
test-system: Dihydrofolate reductase (Rattus norvegicus)
op: >
IC50 (µM): 440
--
mol-smiles: COc1cc(Cc2cnc(N)nc2N)cc(OC)c1OCc1ccccc1
test-system: Dihydrofolate reductase (Rattus norvegicus)
op: =
IC50 (µM): 47
